These data points were gathered from the supplement of paper PMC10065799.

# Target or system: FGFR3 (UniProt P22607)
# Sequence (P22607 whole entry, looked up): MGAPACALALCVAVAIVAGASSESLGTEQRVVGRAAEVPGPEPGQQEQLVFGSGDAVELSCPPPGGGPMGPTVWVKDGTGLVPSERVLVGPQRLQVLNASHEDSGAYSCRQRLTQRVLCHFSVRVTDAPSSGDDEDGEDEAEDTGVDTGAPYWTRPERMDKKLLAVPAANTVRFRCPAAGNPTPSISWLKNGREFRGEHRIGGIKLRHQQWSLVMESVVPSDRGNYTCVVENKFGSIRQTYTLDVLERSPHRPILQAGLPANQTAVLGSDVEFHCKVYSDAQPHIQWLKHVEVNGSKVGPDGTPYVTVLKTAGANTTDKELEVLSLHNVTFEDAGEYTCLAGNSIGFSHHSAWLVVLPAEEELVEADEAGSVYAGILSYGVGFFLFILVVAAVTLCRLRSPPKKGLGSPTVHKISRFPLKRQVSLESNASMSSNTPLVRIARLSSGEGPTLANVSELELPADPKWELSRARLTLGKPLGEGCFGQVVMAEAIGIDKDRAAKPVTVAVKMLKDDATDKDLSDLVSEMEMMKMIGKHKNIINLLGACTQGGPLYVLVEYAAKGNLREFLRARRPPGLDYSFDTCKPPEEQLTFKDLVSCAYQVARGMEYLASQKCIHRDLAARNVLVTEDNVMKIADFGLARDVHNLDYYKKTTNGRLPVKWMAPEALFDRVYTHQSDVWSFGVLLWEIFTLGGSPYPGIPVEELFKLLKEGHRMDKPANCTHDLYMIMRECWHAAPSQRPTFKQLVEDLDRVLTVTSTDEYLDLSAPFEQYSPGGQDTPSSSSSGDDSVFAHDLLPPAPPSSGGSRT
# Experiment: phosphorylation enrichment, bacterial display (enrichment ratio); higher = better substrate or ligand; peptides without Tyr show the background;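 further: 11-residue human phosphosite peptides and single-mutation variants displayed on the E. coli surface, counted by deep sequencing, each peptide's frequency after selection divided by its frequency in the unselected input library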;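 further: frequency after pTyr selection over input frequency; kinase dosed for 20-30% of maximal phosphorylation in three min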

[
  {
    "Residue codes": "RSSNTYTLTDV [ALCAM_Y298]",
    "phosphorylation enrichment": 0.705
  },
  {
    "Residue codes": "ASGKFYAMKIL [AKT3_Y174_YF]",
    "phosphorylation enrichment": 0.589
  },
  {
    "Residue codes": "ISNATYKQIGL [FLT1_Y199_E201Q]",
    "phosphorylation enrichment": 0.399
  },
  {
    "Residue codes": "SSMSDYNPLEK [MYOC_Y479_I477S]",
    "phosphorylation enrichment": 0.581
  },
  {
    "Residue codes": "VSYGEYRYRSV [CFTR_Y515_D513G]",
    "phosphorylation enrichment": 0.469
  },
  {
    "Residue codes": "GLNKGYRMVVN [HINT1_Y94]",
    "phosphorylation enrichment": 0.449
  },
  {
    "Residue codes": "FGMSTYITRED [FNDC3B_Y180_YF]",
    "phosphorylation enrichment": 0.676
  },
  {
    "Residue codes": "AKKKMYSRKTK [AGXT_Y231]",
    "phosphorylation enrichment": 0.476
  },
  {
    "Residue codes": "LKTNWYNNGKD [DNMT3B_Y404_C403W]",
    "phosphorylation enrichment": 1.05
  },
  {
    "Residue codes": "DGQVNYEGFVQ [CALM1_Y139_E141G]",
    "phosphorylation enrichment": 0.724
  },
  {
    "Residue codes": "NVVQEYERVII [NPHS2_Y131_K126N]",
    "phosphorylation enrichment": 0.668
  },
  {
    "Residue codes": "EVKEAYMGSVL [ACAT1_Y90_N93S]",
    "phosphorylation enrichment": 0.527
  },
  {
    "Residue codes": "GREEFYVHYVG [KAT8_Y90]",
    "phosphorylation enrichment": 1.02
  },
  {
    "Residue codes": "CNRADYSKLAS [GNE_Y22_P27S]",
    "phosphorylation enrichment": 0.47
  },
  {
    "Residue codes": "KHMADYPDFKF [SOX11_Y113_YF]",
    "phosphorylation enrichment": 0.701
  },
  {
    "Residue codes": "IEELTYIIKQD [STX5_Y137]",
    "phosphorylation enrichment": 0.665
  },
  {
    "Residue codes": "CTTTHYNYMCN [TP53_Y234_I232T]",
    "phosphorylation enrichment": 0.533
  },
  {
    "Residue codes": "RLNWIYYKDQT [RS1_Y165]",
    "phosphorylation enrichment": 0.98
  },
  {
    "Residue codes": "ESFRLYPPVPQ [CYP4B1_Y377]",
    "phosphorylation enrichment": 0.491
  },
  {
    "Residue codes": "NTCNRYCCDEI [ITGB3_Y660_R662C]",
    "phosphorylation enrichment": 0.88
  },
  {
    "Residue codes": "AYGNLYGSRKQ [YIPF7_Y59]",
    "phosphorylation enrichment": 0.481
  },
  {
    "Residue codes": "IKETHYMVDKC",
    "phosphorylation enrichment": 0.543
  },
  {
    "Residue codes": "NVLPEYKLQAP [KCNH2_Y388_D383N]",
    "phosphorylation enrichment": 0.619
  },
  {
    "Residue codes": "TSSAGYRRTPS [ABI1_Y333_G331A]",
    "phosphorylation enrichment": 0.491
  },
  {
    "Residue codes": "ERTIEYLEEVA [HADHA_Y239]",
    "phosphorylation enrichment": 0.845
  },
  {
    "Residue codes": "VDASFCGGRGV [ANTXR2_Y381_Y381C_YF]",
    "phosphorylation enrichment": 0.629
  },
  {
    "Residue codes": "ERSMSYSDESR [SMG1_Y143]",
    "phosphorylation enrichment": 0.63
  },
  {
    "Residue codes": "DYYDLYGGKKF [PTPN11_Y66_E69K]",
    "phosphorylation enrichment": 9.68
  },
  {
    "Residue codes": "QPSPSYDSSGG [TCF12_Y70_R74G]",
    "phosphorylation enrichment": 0.623
  },
  {
    "Residue codes": "WYQTKYEELQV [KRT6B_Y360_I365V]",
    "phosphorylation enrichment": 0.753
  },
  {
    "Residue codes": "RWGQKHMTAVV [CYBA_Y72_Y72H]",
    "phosphorylation enrichment": 0.74
  },
  {
    "Residue codes": "QCQLKYSETPF [SIX6OS1_Y129_Y125C]",
    "phosphorylation enrichment": 0.842
  },
  {
    "Residue codes": "LYEDCYLLGTS [ASS1_Y87_R86C]",
    "phosphorylation enrichment": 1.28
  },
  {
    "Residue codes": "ISNATYKEIGL [FLT1_Y199]",
    "phosphorylation enrichment": 0.438
  },
  {
    "Residue codes": "FADIAYSFRHG [PAH_Y166_N167S_YF]",
    "phosphorylation enrichment": 0.491
  },
  {
    "Residue codes": "LKMLVYLDMSK [LRRC7_Y234]",
    "phosphorylation enrichment": 1.13
  },
  {
    "Residue codes": "SCRSKYVGLWG [KCNQ1_Y184_G179S]",
    "phosphorylation enrichment": 0.456
  },
  {
    "Residue codes": "AIIEEYLHLND [EIF4G1_Y1253]",
    "phosphorylation enrichment": 0.736
  },
  {
    "Residue codes": "FYDANCDGKEY [MAPRE2_Y162_Y162C]",
    "phosphorylation enrichment": 0.922
  },
  {
    "Residue codes": "PVFEVYPLLNC [GATA1_Y78_Q76E]",
    "phosphorylation enrichment": 1.9
  },
  {
    "Residue codes": "AEFGLYGAMVW [VSX2_Y222_R227W_YF]",
    "phosphorylation enrichment": 0.887
  },
  {
    "Residue codes": "YQLENCCNGGG [INS_Y108_Y108C]",
    "phosphorylation enrichment": 0.621
  },
  {
    "Residue codes": "KAIMIYVSSFF [ACTN4_Y260_T259I_YF]",
    "phosphorylation enrichment": 0.666
  },
  {
    "Residue codes": "RVGVDYEGRGC [PLOD1_Y675_G678R]",
    "phosphorylation enrichment": 0.709
  },
  {
    "Residue codes": "HCHEGYILHGA [SVEP1_Y2921]",
    "phosphorylation enrichment": 0.768
  },
  {
    "Residue codes": "LPIQTYSALNF [DES_Y423]",
    "phosphorylation enrichment": 2.07
  },
  {
    "Residue codes": "CDGKEYDPVEA [MAPRE2_Y167_Y162C]",
    "phosphorylation enrichment": 0.721
  },
  {
    "Residue codes": "FPPDGYSRHFE [CTNND1_Y213_YF]",
    "phosphorylation enrichment": 0.603
  },
  {
    "Residue codes": "DMGAQYAAASR [ARID1B_Y483_P488R]",
    "phosphorylation enrichment": 0.396
  },
  {
    "Residue codes": "LGRTRYQDVTG [MIPEP_Y510_H512D]",
    "phosphorylation enrichment": 0.665
  },
  {
    "Residue codes": "EEGENYQKGER [CHGB_Y173]",
    "phosphorylation enrichment": 0.731
  },
  {
    "Residue codes": "EYKDAYKFAAD [BRDT_Y335]",
    "phosphorylation enrichment": 0.632
  },
  {
    "Residue codes": "NYNPNYCFAGK [ALK_Y1096_D1091N]",
    "phosphorylation enrichment": 0.642
  },
  {
    "Residue codes": "STEAIYWRYSK [SH3PXD2B_Y42_R43W]",
    "phosphorylation enrichment": 1.53
  },
  {
    "Residue codes": "GRQGIYTENER [GPR143_Y231]",
    "phosphorylation enrichment": 0.62
  },
  {
    "Residue codes": "GGSDRYGSLRP [MYLK_Y846]",
    "phosphorylation enrichment": 0.407
  },
  {
    "Residue codes": "TQKLAYMELQQ [CENPF_Y700]",
    "phosphorylation enrichment": 0.629
  },
  {
    "Residue codes": "PGAPAYRVLME [MYO5A_Y1245]",
    "phosphorylation enrichment": 0.726
  }
]
